subject-of-test: human adenosine A2b receptor (Homo sapiens, UniProt P29275)
Construct: expressed in transfected cells; host or cells: CHO cells co-transfected with reporter plasmid pCRE-LUCI and pA2bRCV
Sequence (P29275 whole entry): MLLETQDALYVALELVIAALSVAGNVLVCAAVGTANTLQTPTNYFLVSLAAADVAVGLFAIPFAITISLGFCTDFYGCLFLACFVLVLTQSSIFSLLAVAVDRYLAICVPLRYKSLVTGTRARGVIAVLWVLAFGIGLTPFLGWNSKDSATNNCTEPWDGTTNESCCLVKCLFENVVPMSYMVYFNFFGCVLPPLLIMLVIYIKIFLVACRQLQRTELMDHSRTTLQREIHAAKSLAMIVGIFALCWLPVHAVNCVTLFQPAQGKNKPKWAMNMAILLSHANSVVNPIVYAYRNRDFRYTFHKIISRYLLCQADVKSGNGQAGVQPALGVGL
assay: Adenosine A2b receptor reporter gene assay (luciferase, CHO-A2b cells, NECA agonist)
Format: cell-based
condition-label: CHO cells with pCRE-LUCI and human A2b receptor; antagonist at 100 nM or 1 μM; shift of NECA concentration-response curve; KB=[antagonist]/(concentration ratio−1)
Method: Adenosine A2b Receptor Reporter Gene Assay a) Culturing of Chinese Hamster Ovary (CHO) A2b Cell Line […] 5′-N-ethylcarboxamidoadenosine (NECA), an adenosine A2b agonist, is prepared as a […] solution in DMSO and then diluted to 100 μM with Assay Buffer. […] 100 μl of Steady-Glo, a Luciferase assay substrate from Promega, is added to all wells to lyse the cells and generate luminescence in proportion to the amount of Lucifrease produced. […]
# T = Kb below 40 nM (exclusive); F = Kb at/above 40 nM

# molecule-smiles, category-label
rows = [
    ("CN(C)c1cc(-c2sc(Nc3cccc(F)c3)nc2-c2cccc(C#N)c2)cnn1", "F"),
    ("Cc1ccnc(Nc2nc(-c3cccc(C#N)c3)c(-c3ccncn3)s2)c1", "T"),
    ("N#Cc1cccc(-c2nc(Nc3ccccn3)sc2-c2ccncn2)c1", "T"),
    ("N#Cc1cccc(-c2nc(Nc3cnccn3)sc2-c2ccncn2)c1", "T"),
    ("N#Cc1cccc(Nc2nc(-c3cccc(C#N)c3)c(-c3ccncn3)s2)c1", "T"),
]
